- EXPERIMENT_DESCRIPTION: Lipophilicity, log D of the compound in octanol/water at pH 7.6 incubated for 72 hrs under shaking condition by shake flask based HPLC-PDA method
- Assay type: physicochemical
- MEASUREMENT_CONTEXT: pH 7.6
READOUT_KIND: logD at 72 h

INSERT INTO results (smiles_data, readout_kind, result) VALUES
  ('O=C(O)/C=C\C(=O)O.O=c1cc(N2CCN(CC3CCCCC3)CC2)sc2c([N+](=O)[O-])cc(C(F)(F)F)cc12', 'logD at 72 h', '> 4.24');

---

- EXPERIMENT_DESCRIPTION: Cmax in Sprague-Dawley rat at 5 mg/kg, iv measured upto 24 hrs by LC/MS/MS analysis
- Assay type: ADME, organism-based
- Parameters: time < 24 hrs, dose 5 mg/kg, route iv
- MEASUREMENT_CONTEXT: in vivo
Reported values of Cmax for individual entries
READOUT_KIND: Cmax (ng/mL)

INSERT INTO results (smiles_data, quantitative_readout) VALUES
  ('O=c1cc(N2CCN(CC3CCCCC3)CC2)sc2c([N+](=O)[O-])cc(C(F)(F)F)cc12', 3560),
  ('O=C(O)/C=C\C(=O)O.O=c1cc(N2CCN(CC3CCCCC3)CC2)sc2c([N+](=O)[O-])cc(C(F)(F)F)cc12', 3880),
  ('Cl.O=c1cc(N2CCN(CC3CCCCC3)CC2)sc2c([N+](=O)[O-])cc(C(F)(F)F)cc12', 3490);

---

- EXPERIMENT_DESCRIPTION: Aqueous solubility of compound by HPLC-PDA method
- Assay type: physicochemical
- MEASUREMENT_CONTEXT: buffer; read-out: solubility
READOUT_KIND: log10 of solubility (log10 of the value in µg/mL)

INSERT INTO assay_data (smiles_data, quantitative_readout) VALUES
  ('O=C(O)/C=C\C(=O)O.O=c1cc(N2CCN(CC3CCCCC3)CC2)sc2c([N+](=O)[O-])cc(C(F)(F)F)cc12', 2.06),
  ('O=C(O)CC(O)(CC(=O)O)C(=O)O.O=C(O)CC(O)(CC(=O)O)C(=O)O.O=C(O)CC(O)(CC(=O)O)C(=O)O.O=c1cc(N2CCN(CC3CCCCC3)CC2)sc2c([N+](=O)[O-])cc(C(F)(F)F)cc12.O=c1cc(N2CCN(CC3CCCCC3)CC2)sc2c([N+](=O)[O-])cc(C(F)(F)F)cc12', 2.11),
  ('O=c1cc(N2CCN(CC3CCCCC3)CC2)sc2c([N+](=O)[O-])cc(C(F)(F)F)cc12', -0.82),
  ('O=C(O)CC(O)(CC(=O)O)C(=O)O.O=c1cc(N2CCN(CC3CCCCC3)CC2)sc2c([N+](=O)[O-])cc(C(F)(F)F)cc12', 2.16),
  ('O=C(O)C[C@H](O)C(=O)O.O=c1cc(N2CCN(CC3CCCCC3)CC2)sc2c([N+](=O)[O-])cc(C(F)(F)F)cc12', 2.20),
  ('Cl.O=c1cc(N2CCN(CC3CCCCC3)CC2)sc2c([N+](=O)[O-])cc(C(F)(F)F)cc12', 1.45),
  ('O=C(O)/C=C/C(=O)O.O=C(O)/C=C/C(=O)O.O=C(O)/C=C/C(=O)O.O=c1cc(N2CCN(CC3CCCCC3)CC2)sc2c([N+](=O)[O-])cc(C(F)(F)F)cc12.O=c1cc(N2CCN(CC3CCCCC3)CC2)sc2c([N+](=O)[O-])cc(C(F)(F)F)cc12', 2.12);
